These measurements were taken from PubChem BioAssay (NCI).

Reported TGI by item:
System: LOX IMVI melanoma
Assay: NCI tumour cell line growth inhibition, 48 h

Consider CC(=O)c1cccc(NC(=O)/C(=N\NC(C)(C)C)c2c(O)c3ccccc3oc2=O)c1 . Its measured TGI is > 100 µM

* * *

System: M14 melanoma
Assay: NCI tumour cell line growth inhibition, 48 h; in the data active = GI50 below about 0.43 µM; inactive = the rest
Your reply should match one of these outcome classes. Yes = active, No = inactive

Illustrative cases are given below, each with its answer.
>  <smiles data>
C[n+]1c(/C=C\c2ccc(Cl)cc2)ccc2ccccc21

>  <class>
No

$$$$
>  <smiles data>
Oc1ccc(-c2nnc3sc(-c4ccc(F)c(Oc5ccccc5)c4)nn23)cc1

>  <class>
No

$$$$
>  <smiles data>
C=C1C(=O)O[C@H]2[C@H]1CC/C(COC(=O)CCCCC(=O)OC/C1=C/CC[C@@]3(C)O[C@H]3[C@H]3OC(=O)C(=C)[C@@H]3CC1)=C\CC[C@@]1(C)O[C@@H]21

>  <class>
No

$$$$
>  <smiles data>
COc1ccc2c(c1)C(=O)/C(=C/c1cccc(OCC(=O)Nc3nc4c(s3)CCCC4)c1)O2

>  <class>
No

$$$$
>  <smiles data>
CC1=C[C@H]2c3c(c(O)c(O)c4oc5c(C)cccc5c(=O)c34)[C@H](c3cc(O)c(O)c4oc5c(C)cccc5c(=O)c34)[C@H]2C(C)(C)C1

>  <class>
No

$$$$
>  <smiles data>
CC[C@H](C)[C@H]1NC(=O)[C@@H](N[C@](C)(O)[C@@H](N)CC(C)C)[C@@H](C)OC(=O)[C@H](Cc2ccc(OC)cc2)N(C)C(=O)[C@@H]2CCCN2C(=O)[C@H](CC(C)C)NC(=O)[C@@H](C)C(=O)[C@H](C(C)C)OC(=O)C[C@@H]1O

>  <class>
Yes

$$$$

// param item: O=c1c2cccc(Cl)c2sc2c(NCCCNCCO)nc3ccccc3c12 ; yields the recorded call
No
